SYSTEM NAME: T1, human folate receptor alpha expressed on cells (transfected HEK293T, HeLa, MCF7, MDA-MB-231) (human, UniProt P15328 25-234)
T1 construct: HEK293T transiently transfected with human FOLR1; also called native human FRα; cell-expressed human FOLR1
T1 sequence (P15328 25-234 limits assumed): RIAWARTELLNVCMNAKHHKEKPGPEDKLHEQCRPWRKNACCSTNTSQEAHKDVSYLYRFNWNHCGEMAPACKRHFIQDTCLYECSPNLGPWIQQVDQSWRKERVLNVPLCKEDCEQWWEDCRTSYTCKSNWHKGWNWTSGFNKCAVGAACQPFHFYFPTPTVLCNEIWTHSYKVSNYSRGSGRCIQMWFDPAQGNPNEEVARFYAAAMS
ASSAY COMMENT: flow cytometry on HeLa cells, anti-Flag detection
MEASURED METRIC: EC50 (nM)

- BINDER: "P01500041: P01500001(D72P, N73G)-FLAG3-HIS6 (VHH, also called P0150041) VHH: EVQLVESGGGLVQPGGSLRLSCAASGSGFSGMIMGWYRQAPGKQRELVATVTSHGTTNYADSVKGRFTISRPGAKNTVYLQMNSLRPEDTAVYYCNAHFPGIYWGKGTLVTVSS"
  UNIT SPEC: "nM"
  EC50: 4.2
- BINDER: "P01500050: P01500001(G28T, D72P)-FLAG3-HIS6 (VHH, also called P0150050) VHH: EVQLVESGGGLVQPGGSLRLSCAASGSTFSGMIMGWYRQAPGKQRELVATVTSHGTTNYADSVKGRFTISRPNAKNTVYLQMNSLRPEDTAVYYCNAHFPGIYWGKGTLVTVSS"
  UNIT SPEC: "nM"
  EC50: 3.61
- BINDER: "P01500006: 2HF042(Q1E, Q5V, A14P, V40A, L79Y, K83R, Q108L)-FLAG3-HIS6 (VHH, Entry includes the tags; also called P0150006) VHH: EVQLVESGGGLVQPGGSLRLSCAASGSGFSGMIMGWYRQAPGKQRELVATVTSHGTTNYADSVKGRFTISRDNAKNTVYLQMNSLRPEDTAVYYCNAHFPGIYWGKGTLVTVSS"
  UNIT SPEC: "nM"
  EC50: 32.4
- BINDER: "P01500055: P01500001(V51R, D72E, N73G)-FLAG3-HIS6 (VHH, also called P0150055) VHH: EVQLVESGGGLVQPGGSLRLSCAASGSGFSGMIMGWYRQAPGKQRELVATRTSHGTTNYADSVKGRFTISREGAKNTVYLQMNSLRPEDTAVYYCNAHFPGIYWGKGTLVTVSS"
  UNIT SPEC: "nM"
  EC50: 3.77

I. P01500051: P01500001(D72E, N73G)-FLAG3-HIS6 (VHH, also called P0150051) VHH: EVQLVESGGGLVQPGGSLRLSCAASGSGFSGMIMGWYRQAPGKQRELVATVTSHGTTNYADSVKGRFTISREGAKNTVYLQMNSLRPEDTAVYYCNAHFPGIYWGKGTLVTVSS
II. P01500054: P01500001(I33L, N73P)-FLAG3-HIS6 (VHH, also called P0150054) VHH: EVQLVESGGGLVQPGGSLRLSCAASGSGFSGMLMGWYRQAPGKQRELVATVTSHGTTNYADSVKGRFTISRDPAKNTVYLQMNSLRPEDTAVYYCNAHFPGIYWGKGTLVTVSS
Qu. Name the one with the greater EC50 value, either I or II as given. Label of pick, please.
Ans. II

Source: patent US20250304677A1
